B1: Peroxisome proliferator-activated receptor delta, residues 71 to 145; numbered along this chain, Q03181 (parent)
chain: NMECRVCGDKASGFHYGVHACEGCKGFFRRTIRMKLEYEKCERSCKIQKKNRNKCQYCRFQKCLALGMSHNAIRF

Variants of: B1
experimentNotes: abundance fitness (aPCA) (normalised: wild type 0, dead -1); higher = more abundant; growth selection in yeast, the domain comes from the species named
testContext: Homo sapiens
# cutoff -0.4 applies to abundance fitness; >= gives Condition met, < gives Condition not met

> print(dat)
   mutantname              group
1        V18S  Condition not met
2         C4T  Condition not met
3        C58W  Condition not met

Confirm if abundance fitness reported for the variant `C24E` is -0.4 or above. Condition not met

// query: `G8I` Condition not met

// query: `R29F` Condition met
